Molecular target: human TAS2R44 bitter taste receptor (Homo sapiens, UniProt P59538, L162M)
Construct: The TAS2R44 construct contains RSS tag, TAS2R44, and the HSV tag which are fused in frame; expressed in transfected cells; host or cells: HEK293T cells stably expressing Galpha16-gustducin44
Sequence (P59538 with tags, fused parts or gaps L162M): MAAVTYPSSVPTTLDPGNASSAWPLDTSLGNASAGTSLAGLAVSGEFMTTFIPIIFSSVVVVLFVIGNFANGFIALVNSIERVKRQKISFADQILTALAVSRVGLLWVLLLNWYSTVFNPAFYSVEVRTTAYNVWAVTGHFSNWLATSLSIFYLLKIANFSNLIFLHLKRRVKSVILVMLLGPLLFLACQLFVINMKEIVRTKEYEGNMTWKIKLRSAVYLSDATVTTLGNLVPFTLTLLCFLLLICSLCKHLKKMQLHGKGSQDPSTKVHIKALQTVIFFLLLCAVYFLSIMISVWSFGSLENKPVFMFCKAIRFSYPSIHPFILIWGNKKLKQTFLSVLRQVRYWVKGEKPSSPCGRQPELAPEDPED
Assay: TAS2R44 bitter taste receptor Fluo-4 calcium assay for IC50 determination
Type: cell-based
Settings: saccharin (0.5 mM) as agonist; HEK293T cells expressing Gα16-gustducin44 and TAS2R44; read-out: IC50
Listed next: entries and their corresponding IC50.

[
  {
    "compound": "CC(C)(C)[C@H]1CC[C@@H](C(=O)O)CC1",
    "readout": "IC50",
    "observed": "0.05 to 25 µM"
  }
]

Here is the next item to consider.
[ask] Sample CCC[C@H]1CC[C@@H](C(=O)O)CC1 [cis-4-propylcyclohexanecarboxylic acid] — what was its IC50?
[reply] 0.05 to 25 µM
